Tested on: Staphylococcus aureus
method: Antibacterial activity against methicillin-susceptible Staphylococcus aureus after 18 to 24 hrs by CLSI broth microdilution method
Assay type: functional
quantity.kind: MIC (µg/mL)
One number for each entry, in µg/mL.

Completed entries (count: 3):
[
  {
    "compound": "CO[C@H]1CN(CCn2c(=O)ccc3ccc(C#N)cc32)CC[C@H]1NCc1cc2c(cn1)OCCO2",
    "MIC / µg/mL": 0.13
  },
  {
    "compound": "CO[C@H]1CN(CCn2c(=O)ccc3ccc(C#N)cc32)CC[C@@H]1NCc1cc2c(cn1)OCCO2 (single isomer, unassigned; enantiomer 1)",
    "MIC / µg/mL": 0.25
  },
  {
    "compound": "N#Cc1ccc2ccc(=O)n(CCN3CC[C@@H](NCc4cc5c(cn4)OCCO5)[C@@H](O)C3)c2c1",
    "MIC / µg/mL": 0.06
  }
]

We next turn to a different compound, shown below.
## Task So what does the record say about MIC for COc1ccc2ncc(=O)n(CCN3CC[C@@H](NCc4cc5c(cn4)OCCO5)[C@@H](O)C3)c2c1 ?
## Result 0.06

###

method: Half life in Beagle dog at 3 mg/kg, iv administered as bolus dose and 10 mg/kg, po
Type: ADME, organism-based, Canis lupus familiaris
measurement.setup: in vivo
quantity.kind: half-life

## Task Please give the measured half-life for this molecule: N#Cc1ccc2ccc(=O)n(CCN3CCC(NCc4cc5c(cn4)OCCO5)CC3)c2c1
## Result 8.4 h

###

test.system: Voltage-gated inwardly rectifying potassium channel KCNH2 (Homo sapiens, UniProt Q12809)
Sequence (Q12809 whole entry): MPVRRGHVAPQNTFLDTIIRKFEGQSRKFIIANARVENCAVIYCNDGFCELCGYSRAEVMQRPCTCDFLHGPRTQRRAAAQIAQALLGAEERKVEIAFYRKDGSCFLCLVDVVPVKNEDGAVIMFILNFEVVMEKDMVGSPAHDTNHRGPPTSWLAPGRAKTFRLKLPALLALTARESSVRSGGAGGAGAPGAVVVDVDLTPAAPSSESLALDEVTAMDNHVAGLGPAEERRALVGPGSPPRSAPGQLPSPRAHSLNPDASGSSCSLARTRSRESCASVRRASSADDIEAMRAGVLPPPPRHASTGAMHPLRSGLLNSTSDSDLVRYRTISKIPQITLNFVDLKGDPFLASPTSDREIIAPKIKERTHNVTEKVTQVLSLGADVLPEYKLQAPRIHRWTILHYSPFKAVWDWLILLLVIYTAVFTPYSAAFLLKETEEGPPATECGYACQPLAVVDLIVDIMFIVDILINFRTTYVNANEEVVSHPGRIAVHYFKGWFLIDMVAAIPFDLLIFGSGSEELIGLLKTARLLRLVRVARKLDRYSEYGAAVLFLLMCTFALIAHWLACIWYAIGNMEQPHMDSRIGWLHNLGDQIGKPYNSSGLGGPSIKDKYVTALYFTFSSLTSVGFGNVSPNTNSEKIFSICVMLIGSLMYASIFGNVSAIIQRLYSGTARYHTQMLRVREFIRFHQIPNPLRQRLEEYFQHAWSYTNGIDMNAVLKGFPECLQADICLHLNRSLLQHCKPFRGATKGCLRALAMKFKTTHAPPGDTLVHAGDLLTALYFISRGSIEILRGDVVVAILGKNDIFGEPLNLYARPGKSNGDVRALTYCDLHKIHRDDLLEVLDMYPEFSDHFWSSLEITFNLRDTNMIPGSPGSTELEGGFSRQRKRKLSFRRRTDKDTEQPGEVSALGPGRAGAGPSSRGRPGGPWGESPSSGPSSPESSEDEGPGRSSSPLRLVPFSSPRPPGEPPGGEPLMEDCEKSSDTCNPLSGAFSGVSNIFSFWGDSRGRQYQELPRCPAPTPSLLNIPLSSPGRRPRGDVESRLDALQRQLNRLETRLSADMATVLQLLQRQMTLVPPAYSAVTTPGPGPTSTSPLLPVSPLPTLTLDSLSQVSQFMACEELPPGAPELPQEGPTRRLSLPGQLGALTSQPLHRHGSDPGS
method: Displacement of [3H]-astemizole from human ERG expressed in HEK293 cells after 60 mins by liquid scintillation counter
Type: cell-based
quantity.kind: pIC50
Numbers only, as −log10 of the molar value.

[
  {
    "molecule": "N#Cc1ccc2ccc(=O)n(CCN3CC[C@H](NCc4cc5c(cn4)OCCO5)[C@@H](F)C3)c2c1 (single isomer, unassigned; enantiomer B)",
    "measured": 4.24
  }
]

Consider now this further molecule.
## Task Find the measured pIC50: item N#Cc1ccc2ccc(=O)n(CCN3CCC(NCc4cc5c(cn4)OCCO5)CC3)c2c1 , target or system Voltage-gated inwardly rectifying potassium channel KCNH2 (Homo sapiens, UniProt Q12809).
## Result 4.41

###

method: AUC in Wistar Han rat at 10 mg/kg, iv administered as infusion
Type: ADME, organism-based
Parameters: dose 10 mg/kg, route intravenous
measurement.setup: plasma
quantity.kind: AUC (ng·h/mL)
One number for each entry, in ng·h/mL.

[
  {
    "entry.smiles": "N#Cc1ccc2ccc(=O)n(CCN3CC[C@H](NCc4cc5c(cn4)OCCO5)[C@H](F)C3)c2c1",
    "measured": 3100
  }
]

## Task Report AUC for N#Cc1ccc2ccc(=O)n(CCN3CC[C@@H](NCc4ccc5c(n4)NC(=O)CO5)[C@@H](F)C3)c2c1 please.
## Result 2500

###

Tested on: Staphylococcus aureus
method: Antibacterial activity against methicillin-susceptible Staphylococcus aureus after 18 to 24 hrs by CLSI broth microdilution method
Assay type: functional
Threshold 0.06 µg/mL. MIC below it: Y. MIC at it or above: N.

[
  {
    "compound": "COc1ccc2ncc(=O)n(CCN3CC[C@H](NCc4ccc5c(n4)NC(=O)CO5)[C@H](F)C3)c2c1",
    "class.label": "Y"
  },
  {
    "compound": "N#Cc1ccc2ccc(=O)n(CCN3CC[C@@H](NCc4ccc5c(n4)NC(=O)CO5)[C@@H](O)C3)c2c1",
    "class.label": "N"
  },
  {
    "compound": "COc1ccc2ncc(=O)n(CCN3CC[C@H](NCc4ccc5c(n4)NC(=O)CO5)[C@@H](F)C3)c2c1 (single isomer, unassigned; enantiomer B)",
    "class.label": "Y"
  },
  {
    "compound": "COc1ccc2ncc(=O)n(CCN3CC[C@@H](NCc4ccc5c(n4)NC(=O)CO5)[C@@H](F)C3)c2c1",
    "class.label": "Y"
  },
  {
    "compound": "N#Cc1ccc2ccc(=O)n(CCN3CC[C@H](NCc4ccc5c(n4)NC(=O)CO5)[C@H](O)C3)c2c1",
    "class.label": "N"
  }
]

## Task I'd appreciate it if you could check whether COc1ccc2ncc(=O)n(CCN3CC[C@H](NCc4cc5c(cn4)OCCO5)[C@@H](OC)C3)c2c1 (single isomer, unassigned; enantiomer 1) has MIC smaller than 0.06 µg/mL.
## Result N

## Task Also COc1ccc2ncc(=O)n(CCN3CCC(NCc4ccc5c(n4)NC(=O)CO5)CC3)c2c1 ?
## Result Y

## Task Okay, and COc1ccc2ncc(=O)n(CCN3CC[C@@H](NCc4ccc5c(n4)NC(=O)CO5)[C@@H](O)C3)c2c1 ?
## Result N

## Task Same again, this time with N#Cc1ccc2ccc(=O)n(CCN3CCC(NCc4cc5c(cn4)OCCO5)CC3)c2c1
## Result Y

## Task Here is the next compound: N#Cc1ccc2ccc(=O)n(CCN3CC[C@H](NCc4cc5c(cn4)OCCO5)[C@@H](F)C3)c2c1 (single isomer, unassigned; enantiomer B)
## Result N

These entries and their values trace back to ChEMBL document CHEMBL2163267.
